- Measurement Target: T1, 4H3625-AA
- T1 chain: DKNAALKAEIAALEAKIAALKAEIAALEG
- Assay Summary: two-hybrid library CCmax;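 note: natural log of median RNA to DNA barcode read ratio; higher means stronger binding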
- Recorded Conditions: mean of both orientations
Measured Parameter: interaction score

DKIAALKAENAALKAEIAALEAKIAALKG [4H2758-AA] : -0.393
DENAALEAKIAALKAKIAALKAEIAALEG [4H1385-AA] : 1.76
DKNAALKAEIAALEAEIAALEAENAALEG [4H3587-AA] : -0.634
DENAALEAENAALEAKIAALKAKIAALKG [4H1198-AA] : -0.0176
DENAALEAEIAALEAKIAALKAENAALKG [4H1068-AA] : -0.226

[1] DKIAALKAKIAALEAKNAALKAEIAALEG [4H2873-AA]
[2] DKNAALEAEIAALEAKNAALKAKIAALKG [4H3134-AA]
Query: I need your help: which of the pair 1 , 2 has higher interaction score? # respond with the chosen item's label
Reply: 1
(1: 1.8, 2: -0.878)
